- TGT: BRG1 (Homo sapiens)
- Construct: either BRM primary antibody (Cell signaling Cat #11966) or BRG primary antibody (Abcam, ab 110641); endogenous in cells; host or cells: SW1573
- Sequence (P51532 whole entry): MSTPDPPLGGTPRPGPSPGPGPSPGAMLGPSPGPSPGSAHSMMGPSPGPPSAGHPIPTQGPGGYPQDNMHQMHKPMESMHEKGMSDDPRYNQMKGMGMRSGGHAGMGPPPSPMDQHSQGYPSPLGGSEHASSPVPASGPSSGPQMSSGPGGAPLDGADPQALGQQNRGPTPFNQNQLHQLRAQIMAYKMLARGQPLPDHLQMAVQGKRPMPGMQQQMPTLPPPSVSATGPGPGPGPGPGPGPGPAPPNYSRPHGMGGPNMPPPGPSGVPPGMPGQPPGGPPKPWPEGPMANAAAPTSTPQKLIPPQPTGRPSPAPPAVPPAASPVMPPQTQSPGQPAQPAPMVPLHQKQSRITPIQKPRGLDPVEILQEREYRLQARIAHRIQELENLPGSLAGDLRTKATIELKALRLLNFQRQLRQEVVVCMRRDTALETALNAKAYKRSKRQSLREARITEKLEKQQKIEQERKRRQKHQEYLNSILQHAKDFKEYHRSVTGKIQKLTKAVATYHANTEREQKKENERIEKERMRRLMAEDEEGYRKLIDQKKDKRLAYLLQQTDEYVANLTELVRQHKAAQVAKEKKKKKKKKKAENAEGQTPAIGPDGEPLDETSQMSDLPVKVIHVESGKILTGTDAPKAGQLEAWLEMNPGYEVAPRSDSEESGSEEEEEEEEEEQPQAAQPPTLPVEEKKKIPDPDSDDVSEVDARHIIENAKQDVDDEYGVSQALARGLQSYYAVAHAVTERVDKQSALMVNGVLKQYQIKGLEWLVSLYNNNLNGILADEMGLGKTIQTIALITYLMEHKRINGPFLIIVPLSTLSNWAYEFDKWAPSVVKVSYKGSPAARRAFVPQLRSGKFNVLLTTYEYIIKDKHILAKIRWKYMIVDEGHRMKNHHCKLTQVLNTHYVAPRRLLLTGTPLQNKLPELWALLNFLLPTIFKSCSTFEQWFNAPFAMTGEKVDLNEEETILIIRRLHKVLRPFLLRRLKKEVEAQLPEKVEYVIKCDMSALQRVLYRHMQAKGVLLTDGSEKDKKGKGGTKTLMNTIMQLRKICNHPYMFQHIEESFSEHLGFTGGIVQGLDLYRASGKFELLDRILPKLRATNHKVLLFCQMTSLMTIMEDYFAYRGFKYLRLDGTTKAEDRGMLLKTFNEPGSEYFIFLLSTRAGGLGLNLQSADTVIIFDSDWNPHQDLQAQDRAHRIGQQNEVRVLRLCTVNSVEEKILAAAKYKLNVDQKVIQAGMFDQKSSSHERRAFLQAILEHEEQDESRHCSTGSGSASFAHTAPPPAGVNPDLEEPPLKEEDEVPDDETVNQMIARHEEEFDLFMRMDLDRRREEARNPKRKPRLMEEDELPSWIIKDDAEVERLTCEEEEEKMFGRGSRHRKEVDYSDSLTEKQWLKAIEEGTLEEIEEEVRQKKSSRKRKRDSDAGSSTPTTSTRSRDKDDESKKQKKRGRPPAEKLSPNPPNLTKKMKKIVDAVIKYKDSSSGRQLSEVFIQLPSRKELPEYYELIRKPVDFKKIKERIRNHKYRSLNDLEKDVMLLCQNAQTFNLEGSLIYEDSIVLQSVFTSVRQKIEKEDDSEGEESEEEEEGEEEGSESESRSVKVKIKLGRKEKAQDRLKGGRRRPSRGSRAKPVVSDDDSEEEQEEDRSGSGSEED
- ASSAY_REMARKS: Immunofluorescence assay for BRG1 degradation in SW1573 cells
- Type: cell-based
- CONDITION_SET: 20 hours incubation, immunofluorescence mean nuclear signal, read-out: BRG1 IF Degradation IC50
REPORTED_METRIC: DC50

| COMPOUND | REPORTED_METRIC | READING |
| --- | --- | --- |
| CC1CN(CC#Cc2cc(N3C4CCC3CN(c3cc(-c5ccccc5O)nnc3N)C4)ccn2)CCCC1O (stereo not shown) | DC50 | < 10 nM |
| CC1CCCN(CC#Cc2cc(N3C4CCC3CN(c3cc(-c5ccccc5O)nnc3N)C4)ccn2)C1 (stereo not shown) | DC50 | < 10 nM |
| Cn1cc(C#Cc2cc(N3C4CCC3CN(c3cc(-c5ccccc5O)nnc3N)C4)ccn2)cn1 | DC50 | 10 to 100 nM |
| CN1CCCN(CC#Cc2cc(N3C4CCC3CN(c3cc(-c5ccccc5O)nnc3N)C4)ccn2)CC1 | DC50 | > 100 nM |
| CC1(CO)CN(CC#Cc2cc(N3C4CCC3CN(c3cc(-c5ccccc5O)nnc3N)C4)ccn2)C1 | DC50 | > 100 nM |
| Nc1nnc(-c2ccccc2O)cc1N1CC2CCC(C1)N2c1ccnc(C#CCN2CCCC(N)C2)c1 (stereo not shown) | DC50 | > 100 nM |
| Nc1nnc(-c2ccccc2O)cc1N1CC2CCC(C1)N2c1ccnc(C#CCN2CCC3CC32)c1 (stereo not shown) | DC50 | < 10 nM |
| Nc1nnc(-c2ccccc2O)cc1N1CC2CCC(C1)N2c1ccnc(C#CCN2CCC3CCC2C3)c1 (stereo not shown) | DC50 | < 10 nM |
| Nc1nnc(-c2ccccc2O)cc1N1CC2CCC(C1)N2c1ccnc(C#CCN2CCn3ccnc3C2)c1 | DC50 | 10 to 100 nM |
| Nc1nnc(-c2ccccc2O)cc1N1CC2CCC(C1)N2c1ccnc(C#CCN2CCCCCC2)n1 | DC50 | < 10 nM |
| CC1(O)CCCCN(CC#Cc2cc(N3C4CCC3CN(c3cc(-c5ccccc5O)nnc3N)C4)ccn2)C1 (stereo not shown) | DC50 | 10 to 100 nM |
| N#CC1CCCN(CC#Cc2cc(N3C4CCC3CN(c3cc(-c5ccccc5O)nnc3N)C4)ccn2)C1 (stereo not shown) | DC50 | 10 to 100 nM |
| NCCCCCCc1cc(N2C3CCC2CN(c2cc(-c4ccccc4O)nnc2N)C3)ccn1 | DC50 | 10 to 100 nM |
| Nc1nnc(-c2ccccc2O)cc1N1CC2CCC(C1)N2c1ccnc(C#CCN2CCC(F)CC2)c1 | DC50 | < 10 nM |
| Nc1nnc(-c2ccccc2O)cc1N1CC2CCC(C1)N2c1ccnc(C#CCN2CC(N3CCOCC3)C2)c1 | DC50 | 10 to 100 nM |
| CC1(F)CN(CC#Cc2cc(N3C4CCC3CN(c3cc(-c5ccccc5O)nnc3N)C4)ccn2)C1 | DC50 | 10 to 100 nM |
| Nc1nnc(-c2ccccc2O)cc1N1CC2CCC(C1)N2c1ccnc(C#CCN2CCCCC2)c1 | DC50 | > 100 nM |
| Nc1nnc(-c2ccccc2O)cc1N1CC2CCC(C1)N2c1ccnc(C#CCN2CC(Oc3ccccc3)C2)c1 | DC50 | < 10 nM |
| Nc1nnc(-c2ccccc2O)cc1N1CC2CCC(C1)N2c1ccnc(C#CCN2CC(F)(F)C2)c1 | DC50 | < 10 nM |
